# Tested on: Pichinde virus
# protocol_notes: Antiviral activity against Pichinde virus infected in African green monkey Vero cells assessed as inhibition of viral replication by neutral red dye based analysis
# Format: functional, organism-based
measured_quantity: EC50 (nM)
The reply should be a number in nM, with the unit left off.

Qu. Fill in the blank: the reported EC50 of "Nc1ncnn2c([C@@H]3N[C@H](CO)[C@@H](O)[C@H]3O)ccc12" is ____.
Ans. 300

====

# protocol_notes: Selectivity index, ratio of CC50 for cytotoxicity against dog MDCK cells infected with Influenza A virus H7N9 assessed as reduction in cell viability by visual analysis to EC50 for antiviral activity against Influenza A virus H7N9 infected in dog MDCK cells assessed as inhibition of viral replication by visual analysis
# Format: toxicity, cell-based
# condition_notes: read-out: Ratio CC50/EC50
measured_quantity: selectivity ratio
Would you mind answering with just the numeric figure?

Qu. Requested field: selectivity ratio. Item: "Nc1ncnn2c([C@@H]3N[C@H](CO)[C@@H](O)[C@H]3O)ccc12"
Ans. 76

src = ChEMBL document CHEMBL5257097
